Tested on: HL-60 (human promyelocytic leukemia)
Test: Alamar Blue cytotoxicity assay, HL-60
Format: cell-based
Settings: Homo sapiens, HL-60; Alamar Blue, 72 h incubation; value in brackets; read-out: IC50 HL60
Could you mark each record True if its IC50 falls strictly under 30 µM, and False if it equals or exceeds it?

Determine if COc1cc2c(cc1OC)-c1c(OC)c(OC)cc3ccnc(c13)C2=O [Oxoglaucine, oxoglaucine] shows IC50 strictly lower than 30 µM.
True

Please indicate whether the reported IC50 of COc1cc2c(cc1OC)-c1c(OC)c(OC)c(OC)c3c1C(C2)NCC3 (single isomer, unassigned; (+)) [(+)-Norpurpureine, (+)-norpurpureine] is strictly below 30 µM.
True

Check if IC50 falls below 30 µM for COc1ccc2c(c1)C(=O)c1nccc3cc4c(c-2c13)OCO4 [Lanuginosine, lanuginosine] .
True

Dear reviewer, please state whether COc1cc2c(cc1OC)-c1c(OC)c(OC)cc3c1C(C2)NCC3 (single isomer, unassigned; (+)) [(+)-Norglaucine, (+)-norglaucine] has IC50 strictly beneath 30 µM.
True

Please state whether IC50 is below 30 µM for COc1cc2c(cc1O)CCN1Cc3cc(OC)c(OC)cc3C[C@@H]21 [(+)-Discretine, (+)-discretine]
False

Quick check: IC50 of COc1ccc(CC2c3cc(O)c(OC)cc3CCN2C)cc1O (single isomer, unassigned; (+)) [(+)-Reticuline, (+)-reticuline] under 30 µM?
False

Dear colleague, could you confirm whether IC50 of COc1ccc2c(c1)C[C@@H]1NCCc3cc4c(c-2c31)OCO4 [(+)-Xylopine, (+)-xylopine] falls below 30 µM? Thanks.
True

For this compound, is IC50 lower than 30 µM? c1ccc2c(c1)C[C@H]1NCCc3cc4c(c-2c31)OCO4 [(+)-Anonaine, (+)-anonaine]
False

Report whether reported IC50 is lower than 30 µM (strictly) for COc1cc(O)c2c(c1)C[C@@H]1NCCc3cc4c(c-2c31)OCO4 [(+)-Calycinine, (+)-calycinine]
False

----------
# log10 IC50 values compiled below
Test system: peripheral blood mononuclear cells (PBMCs)
Experiment: Alamar Blue cytotoxicity assay, non-tumor PBMCs
Assay type: cell-based
Settings: Homo sapiens, PBMC, 72 h incubation, ConA-stimulated PBMCs, value in brackets
Record value = log10 of IC50 given in µM.

Any idea what its log10 IC50 is? The compound is COc1cc2c(cc1OC)-c1c(OC)c(OC)cc3ccnc(c13)C2=O
1.46

Dear colleague, I am looking for the recorded log10 IC50 of the following compound: COc1cccc2c1C(=O)c1c(O)c3c(c(O)c1C2=O)C[C@@](O)(C(=O)CO)C[C@@H]3O[C@H]1C[C@H](N)[C@H](O)[C@H](C)O1 [Doxorubicin, doxorubicin, reference compound]
0.66

Any idea what log10 IC50 was measured for COc1cc2c(cc1OC)-c1c(OC)c(OC)cc3c1C(C2)NCC3 (single isomer, unassigned; (+)) [(+)-Norglaucine, (+)-norglaucine] ?
1.29

Sample COc1cc2c(cc1OC)-c1c(OC)c(OC)c(OC)c3c1C(C2)NCC3 (single isomer, unassigned; (+)) [(+)-Norpurpureine, (+)-norpurpureine] — what was its log10 IC50?
1.68

I am curious: what log10 IC50 value has been reported for COc1ccc2c(c1)C(=O)c1nccc3cc4c(c-2c13)OCO4 ?
1.90

Dear colleague, I am looking for the recorded log10 IC50 of the following compound: COc1ccc2c(c1)C[C@@H]1NCCc3cc4c(c-2c31)OCO4 [(+)-Xylopine, (+)-xylopine]
1.14

Data credit: paper PMC6273342
